- targetEntity: hormone sensitive lipase (Homo sapiens, UniProt Q05469)
- Construct: made in house
- Sequence (Q05469 1-1076): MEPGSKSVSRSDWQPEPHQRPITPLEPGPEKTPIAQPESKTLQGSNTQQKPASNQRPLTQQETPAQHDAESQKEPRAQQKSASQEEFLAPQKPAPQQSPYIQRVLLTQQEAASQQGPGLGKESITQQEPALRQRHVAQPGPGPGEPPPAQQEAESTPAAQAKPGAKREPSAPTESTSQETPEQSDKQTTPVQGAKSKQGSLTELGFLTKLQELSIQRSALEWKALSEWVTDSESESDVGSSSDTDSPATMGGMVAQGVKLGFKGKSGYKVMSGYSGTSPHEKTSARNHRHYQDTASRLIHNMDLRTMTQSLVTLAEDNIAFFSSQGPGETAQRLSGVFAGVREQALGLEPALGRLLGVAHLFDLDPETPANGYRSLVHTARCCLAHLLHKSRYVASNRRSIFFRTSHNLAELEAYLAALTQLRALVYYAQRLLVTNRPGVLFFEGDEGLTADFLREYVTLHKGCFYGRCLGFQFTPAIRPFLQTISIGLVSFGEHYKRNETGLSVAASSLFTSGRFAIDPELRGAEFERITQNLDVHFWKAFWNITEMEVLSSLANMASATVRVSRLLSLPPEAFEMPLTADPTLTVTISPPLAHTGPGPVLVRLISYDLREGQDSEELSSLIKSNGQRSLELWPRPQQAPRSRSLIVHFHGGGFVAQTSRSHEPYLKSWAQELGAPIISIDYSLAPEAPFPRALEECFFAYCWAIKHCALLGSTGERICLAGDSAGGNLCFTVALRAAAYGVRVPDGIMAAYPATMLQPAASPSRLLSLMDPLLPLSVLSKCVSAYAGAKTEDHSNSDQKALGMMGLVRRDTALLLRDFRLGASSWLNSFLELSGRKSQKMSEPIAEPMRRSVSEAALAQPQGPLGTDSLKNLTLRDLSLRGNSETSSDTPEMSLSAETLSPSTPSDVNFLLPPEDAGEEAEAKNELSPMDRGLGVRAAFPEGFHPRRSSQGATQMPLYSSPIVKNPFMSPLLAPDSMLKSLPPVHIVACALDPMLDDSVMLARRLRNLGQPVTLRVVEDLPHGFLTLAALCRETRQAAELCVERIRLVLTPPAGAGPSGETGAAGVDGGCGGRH
- assayDetails: Assay 3190.1: percent inhibition of hormone sensitive lipase by compound at 10 μM (fluorochrome-labeled triacylglyceride emulsion, HSL_FL)
- Type: biochemical
- conditions: 10 μM sample concentration; % activity relative to non-inhibited sample (no compound); 30 min preincubation at 25° C., 120 min incubation at 37° C.; read-out: Test 3190.1 HSL_FL % ACTIVITY
experimentalReadout: activity at 10 µM (%)
Give a bare numeral; the unit % is implied.

Inquiry: What does the data say about its activity at 10 µM? Entry: O=C(O)Cc1ccc(CC2CCN(C(=O)Oc3ccc(Cc4ccc(C(F)(F)F)cc4)cc3)CC2)cc1 [Example 74]
Reply text: 3

* * *

Entries annotated with measured activity at 10 µM
- targetEntity: hormone sensitive lipase (Homo sapiens)
- Construct: made in house
- assayDetails: Assay 3190.1: percent inhibition of hormone sensitive lipase by compound at 10 μM (fluorochrome-labeled triacylglyceride emulsion, HSL_FL)
- Format: biochemical
- conditions: 10 μM sample concentration; % activity relative to non-inhibited sample (no compound); 30 min preincubation at 25° C., 120 min incubation at 37° C.; read-out: Test 3190.1 HSL_FL % ACTIVITY
// unit must come after the numeric part

Some solved cases for reference:
[[record]]
chemsmiles = "O=C(O)c1ccc(-c2ccc(OC3CCN(C(=O)Oc4ccc(Oc5ccc(C(F)(F)F)cn5)cc4)CC3)cc2)cc1"
result = "14%"

[[record]]
chemsmiles = "O=C(O)Cc1ccc(OCC2CCN(C(=O)Oc3ccc(Oc4ccc(C(F)(F)F)cn4)cc3)CC2)cc1"
result = "5%"

[[record]]
chemsmiles = "O=C(O)Cc1ccc(OC2CCN(C(=O)Oc3ccc(CCOc4ccc(-n5cnnc5)cc4)cc3)CC2)cc1"
result = "15%"

[[record]]
chemsmiles = "O=C(Oc1ccc(Oc2ccc(C(F)(F)F)cn2)cc1)N1CCC(Cc2ccsc2)CC1"
result = "3%"

[[record]]
chemsmiles = "O=C(Oc1ccc(Oc2ccc(C(F)(F)F)cn2)cc1)N1CCC(Sc2nccn2-c2cccnc2)CC1"
result = "5%"


Inquiry: What does the data say about its activity at 10 µM? Entry: O=C(Nc1ccc(OC(=O)N2CCC(On3cccn3)CC2)nc1)c1ccccc1
Reply text: 15%

Inquiry: What does the data say about its activity at 10 µM? Entry: O=C(Oc1ccc(Oc2ccc(C(F)(F)F)cn2)cc1)N1CCC(Oc2cccnc2)CC1
Reply text: 1%

Inquiry: What does the data say about its activity at 10 µM? Entry: O=C(O)Cc1ccc(OC2CCN(C(=O)Oc3ccc(C(=O)NCCc4ccccc4)cc3)CC2)cc1
Reply text: 5%

Data credit: patent US20060160851A1
